src = patent US10633407B2

Test system: P. aeruginosa ATCC 27853
Assay: CLSI broth dilution MIC determination
Type: cell-based
Conditions: Pseudomonas aeruginosa, ATCC27853; P. aeruginosa ATCC 27853 (MP-3); read-out: MIC
Would you mind telling me the reported MIC of each entry?
Numbers only, in mg/L.

The cases that follow already have their MIC on record.
>  <compound>
CC[C@H]1OC(=O)[C@@](C)(F)C(=O)[C@H](C)[C@@H](O[C@@H]2OC(C)CC(N(C)C)C2O)[C@](C)(OC)C[C@@H](C)C(=O)[C@H](C)[C@H]2N(CC#CCn3cc(-c4cc(F)ccn4)nn3)C(=O)O[C@]12C (stereo partly shown) [FSM-100563]

>  <tgt>
P. aeruginosa ATCC 27853

>  <MIC [mg/L]>
32

$$$$
>  <compound>
CC[C@H]1OC(=O)[C@@](C)(F)C(=O)[C@H](C)[C@@H](O[C@@H]2OC(C)CC(N(C)C)C2O)[C@](C)(OC)C[C@@H](C)C(=O)[C@H](C)[C@H]2N(CC#CCn3cc(-c4cc(N)nc(N)n4)nn3)C(=O)O[C@]12C (stereo partly shown) [FSM-22742]

>  <tgt>
P. aeruginosa ATCC 27853

>  <MIC [mg/L]>
64

$$$$
>  <compound>
CC[C@H]1OC(=O)[C@H](C)C(=O)[C@H](C)[C@@H](O[C@@H]2OC(C)CC(N(C)C)C2O)[C@](C)(OC)C[C@@H](C)C(=O)[C@H](C)[C@H]2N(CC#CCn3cc(-c4cc(F)ccn4)nn3)C(=O)O[C@]12C (stereo partly shown) [FSM-100566]

>  <tgt>
P. aeruginosa ATCC 27853

>  <MIC [mg/L]>
64

$$$$

For each of the compounds below, note its MIC.
1. CC[C@H]1OC(=O)[C@H](C)C(=O)[C@H](C)[C@@H](O[C@@H]2OC(C)CC(N(C)C)C2O)[C@](C)(OC)C[C@@H](C)C(=O)[C@H](C)[C@H]2N(NCCCn3nnc4ccccc43)C(=O)O[C@]12C (stereo partly shown) [FSM-140133]
2. CC[C@H]1OC(=O)[C@H](C)C(=O)[C@H](C)[C@@H](O[C@@H]2OC(C)CC(N(C)C)C2O)[C@](C)(OC)C[C@@H](C)C(=O)[C@H](C)[C@H]2N(CC#CCn3cc(-c4cccc(N)n4)nn3)C(=O)O[C@]12C (stereo partly shown) [FSM-100551]

[64, 16]

For each of the compounds below, note its MIC.
1. CC[C@H]1OC(=O)[C@@](C)(F)C(=O)[C@H](C)[C@@H](O[C@@H]2OC(C)CC(N(C)C)C2O)[C@](C)(OC)C[C@@H](C)C(=O)[C@H](C)[C@H]2N(CC#CCn3cc(-c4cccc(N)n4)nn3)C(=O)O[C@]12C (stereo partly shown) [FSM-100573]
2. CC[C@H]1OC(=O)[C@@](C)(F)C(=O)[C@H](C)[C@@H](O[C@@H]2OC(C)CC(N(C)C)C2O)[C@](C)(OC)C[C@@H](C)C(=O)[C@H](C)[C@H]2N(CC#CCn3cc(-c4cc(N)ccn4)nn3)C(=O)O[C@]12C (stereo partly shown) [FSM-100593]

1. 16
2. 32

// query MIC value for entry CC[C@H]1OC(=O)[C@@](C)(F)C(=O)[C@H](C)[C@@H](O[C@@H]2OC(C)CC(N(C)C)C2O)[C@](C)(OC)C[C@@H](C)C(=O)[C@H](C)[C@H]2N(CC#CCn3cc(-c4cnc(N)s4)nn3)C(=O)O[C@]12C (stereo partly shown) [FSM-100633]
32
